Measured IC90 mutant/IC90 WT, listed per entry for reference.
# Test system: Human immunodeficiency virus type 1 protease (Human immunodeficiency virus 1)
# Assay method text: Antiviral activity against mutant virus HIV-1 mutant (84V) strain
# Assay type: functional
Measure name: IC90 mutant/IC90 WT

1. O=C(Cc1ccccn1)c1cccc(CN2C(=O)N(Cc3ccc4[nH]ncc4c3)[C@H](Cc3ccccc3)[C@H](O)[C@@H](O)[C@H]2Cc2ccccc2)c1: 1
2. O=C1N(Cc2cccc(NCc3nc4ccccc4[nH]3)c2)[C@H](Cc2ccccc2)[C@H](O)[C@@H](O)[C@@H](Cc2ccccc2)N1Cc1ccc2[nH]ncc2c1: 1
3. Nc1ccc(CN2C(=O)N(Cc3ccc4[nH]ncc4c3)[C@H](Cc3ccccc3)[C@H](O)[C@@H](O)[C@H]2Cc2ccccc2)cc1-n1cncn1: 1
